# PROTOCOL NOTES: yeast display, Sf9 membrane polyspecificity reagent, FACS + sequencing; frameworks hold sequencing errors
REPORTED ENDPOINT: polyreactivity (PSR sort gate)

Consider the worked cases shown below.
SEQUENCE CODE | OBS VALUE
QVQLVESGGGLVQAGGSLRLSSAASGSIFVPYAMGWYRQAPGKEREFVAAIYSGGGNTYYADSVKGRFTISRDNAKNTVYLQMNSLKPEDTAVYYCAAAYVYSSWSRYDYWGQGTQVTVSS | high polyreactivity
QVQLVESGGGLVQAGGSLRLSCAASGRIFDIYAMGWYRQAPGKERELVAAIDESGGSTYYADSVKGRFTISRDNAKNTVYLQMNSLKPEDTAVYYCATDDTWTISYGWYWFTYEYWGQGTQVTVSS | low polyreactivity
QVQLVESGGGLVQAGGSLRLSCAASGSTFYLYAMGWYRQAPGKERELVASITYSGASTYYADSVKGRFTISRDNAKNTVYLQMNSLKPEDTAVYYCAADQRGWFAVGSQRKYNYWGQGTQVTVSS | low polyreactivity
QVQLVESGGGLVHAGGSLRLSCAASGRIFFDYTMGWYRQAPGKERELVAAIRTRGDSTYYADSVKGRFTISRDNAKNTFYLQMNSLKPEDTAVYYCAAAVYVRGRRESWGQGTQVTVSS | high polyreactivity
QVQLVESGGGLVQAGGSLSLSCAASGGTFTFYAMGWYRQAPGKERELVATINWSGGSTYYADSVKGRFTISRDNAKNTVYIQMNCLKPEDSAVYYCNAAWAYKSVEYWGQGTQVTVSS | low polyreactivity

Query :: May I ask what polyreactivity (PSR sort gate) has been recorded for `QVQLVESGGALVQAGGSLRLSCAASGSIFLFNTMGWYRQAPGKETELVAVISGGGITYYADSVKGRFTISRDNAKNTVYLQMNSLKPEDTAVYYCAADGGYWSQYDYWGQGTQVTVSS` ?
Result :: low polyreactivity

Query :: Suppose we examine the sequence `QVQLVESGGGLVQAGGSLRLSCAASGRTFWRNAMGWYRQAPWKERELVAAISRSGDSTRYADSVKGRFTISRDNAKYSVYLQRTSLKPEATAVYYCNKLGTGVYEMDYWGQGTKVTVSS` ; what polyreactivity (PSR sort gate) value has been reported?
Result :: high polyreactivity

Query :: Would you mind telling me what polyreactivity (PSR sort gate) value was observed for `QVQLVESGGGLVQAGGSLRISCAASGRTLGGYTMGWYRQAPGKERELVAAITGSGSNTYYADSVKGRFTISRDNAKNTVYLQMNSLKPEDTAVYYCAAPYSYRTWYPYGYWGQGTQVTLSS` ?
Result :: high polyreactivity

Query :: // polyreactivity (PSR sort gate) lookup, key: `QVQLVESGGGLVQAGGSLRLSCAASGRTIRYYSMGWYRQAPGKESELVAAINYSGGRTYYADSVKGRFTISRDNSMNTVYLQLNSLKPEDTAVYYCNAVLGPYFPKFDYWGQGTQVTVSS`
Result :: high polyreactivity

Query :: Which polyreactivity (PSR sort gate) value belongs to `QVQLVESGGGLVQAGGSLRLSCAASGRTLYYYAMGWYRQAPGKERELVARISSRGGSTYYADSVKGRFTISRDNAKNTVYLQMNSLKPEDTAVYYCAADGPGTSEDDYWGQGTQVTVSS` ?
Result :: high polyreactivity

Query :: I have this sequence here, `QVQLVESGGGLVQAGGSLRLSCAASGSTFLKNAMGWYRQAPGKERELVAAISYSTTRTYYADSVKGRFTISRDNAKNTVYLQMNSLKPEDTAVYYCNKASYWGSGFDYWGQGTQVTVSS` , and I need its recorded polyreactivity (PSR sort gate).
Result :: low polyreactivity
